Target: MAPK14 (human)
Readout type: IC50 (nM)
Express the result in nM but write the number alone.

Enter recorded IC50 with MAPK14 (human) for C[C@@H](N[C@H]1CC[C@H](c2[nH]nc(-c3ccc(Cl)cc3)c2-c2ccncn2)CC1)c1ccccc1 here.
8.56

###

Please consider the recorded pIC50 for MAPK14 (human) (UniProt Q16539) in what follows.
Scale explanation: pIC50 corresponds to minus log10 of a concentration expressed in moles per litre.

Here are 3 compounds together with their reported answers.
compound=CC(C)(C)OC(=O)N1CCC(c2[nH]nc(-c3ccc(Cl)cc3F)c2-c2ccnc(NC3CCCC3)n2)CC1 data_value=8.00
compound=Clc1ccc(-c2n[nH]c([C@H]3CC[C@@H](NC4CCCCC4)CC3)c2-c2ccncn2)cc1 data_value=6.63
compound=O=C(CO)N1CCC(c2[nH]nc(-c3ccc(F)c(C(F)(F)F)c3)c2-c2ccncn2)CC1 data_value=6.47

Tell me measured pIC50 for O=C(CO)N1CCC(c2[nH]nc(-c3ccc(Cl)c(F)c3)c2-c2ccncn2)CC1 please.
6.34

Tell me measured pIC50 for Cc1cc(F)ccc1-c1n[nH]c(C2CCN(C(=O)CO)CC2)c1-c1ccncn1 please.
5.57

Tell me measured pIC50 for O=C(C1CCCO1)N1CCC(c2[nH]nc(-c3ccc(Cl)cc3)c2-c2ccncn2)CC1 (stereo unspecified) please.
6.92
